Listing: DTIO Corr train of selected compounds
Tested on: cancer cell lines, DetermaIO classes
Experiment: Association of PRISM compound sensitivity with DetermaIO (DTIO) cell line classes
Type: cell-based
Details: correlation of PRISM compound sensitivity with DTIO; training cell set
Number only, please.

compound: CCCC[C@H](NC(C)=O)C(=O)N[C@H]1CC(=O)NCCCC[C@@H](C(=O)O)NC(=O)[C@H](Cc2c[nH]c3ccccc23)NC(=O)[C@H](CCCN=C(N)N)NC(=O)[C@@H](Cc2ccccc2)NC(=O)[C@H](Cc2cnc[nH]2)NC1=O [bremelanotide]
assay-result: −0.07952
--
compound: COc1ccc(-c2cc(=O)c3c(OC)c(OC)c(OC)c(OC)c3o2)cc1 [tangeritin]
assay-result: −0.09411
--
compound: O=C(Nc1cccc(Nc2ncc(Br)c(NCCc3cnc[nH]3)n2)c1)N1CCCC1 [BX-912]
assay-result: 0.04083
--
compound: Cc1cccc(NC(=O)N[C@@H]2N=C(c3ccccc3)c3ccccc3N(CC(=O)c3ccccc3C)C2=O)c1 [YM022]
assay-result: 0.03884
--
compound: O=C(O)[C@H](O)[C@@H](O)[C@H](O[C@@H]1O[C@H](CO)[C@H](O)[C@H](O)[C@H]1O)[C@H](O)CO [maltobionic-acid]
assay-result: 0.09859
--
compound: Cc1ccc(C[N+](C)(C)C)o1.[I-] [5-methylfurmethiodide]
assay-result: −0.1413
--
compound: N#CSc1cc(SC#N)c(N)nc1N [PR-619]
assay-result: 0.0993

Now for the compound whose DTIO Corr train we want.
Could you share which DTIO Corr train value was measured for C[C@]12N[C@H](Cc3ccccc31)c1ccccc12 [dizocilpine-(−)] ?
0.02729

---

System: cancer cell lines classified IM, MSL, M
Assay: PRISM screen compound sensitivity correlated with IM, MSL and M subtype of cell lines (101 gene signature)
Type: cell-based
Details: correlation of PRISM compound sensitivity with MSL subtype correlation; test cell set (188 cell lines)
Think of -0.06 as a floor: if MSL Corr test stands on it or above, it is true; beneath it, false.

// known answers, use as guide
molecule: O=C(O)/C=C1\CCCc2ccccc2C1O (centres unmarked)
assigned-category: true
--
molecule: COc1ccc([C@H]2CNC(=O)C2)cc1OC1CCCC1 [rolipram-S(+)]
assigned-category: false
--
molecule: O=C1NC(=O)C(c2cnc3ccccn23)=C1c1cn2c3c(cc(F)cc13)CN(C(=O)N1CCCCC1)CC2
assigned-category: true

Alright, here's another molecule for you.
Textbook exercise: given the entry `COc1cc2ncnc(Nc3cccc(Cl)c3)c2cc1OC` , state whether its MSL Corr test is greater than or equal to -0.06.
true

---

Listing: MSL Corr test of selected compounds
Tested on: cancer cell lines classified IM, MSL, M
Test: PRISM screen compound sensitivity correlated with IM, MSL and M subtype of cell lines (101 gene signature)
Assay type: cell-based
Details: correlation of PRISM compound sensitivity with MSL subtype correlation; test cell set (188 cell lines)
Square brackets hold non-standard residues; d marks the D form. Peptide text beside a SMILES is read from it. dPhe(4-Cl) = N[C@H](Cc1ccc(Cl)cc1)C(=O)O; d2Nal = N[C@H](Cc1ccc2ccccc2c1)C(=O)O; dCit = NC(=O)NCCC[C@@H](N)C(=O)O; d3Pal = N[C@H](Cc1cccnc1)C(=O)O
Number only, please.

Past entries and their recorded results:
compound: C[C@H](C[C@H](N)C(=O)O)C(=O)O
MSL Corr test: 0.05746
--
compound: COc1cc2ncnc(Nc3ccc(O)c(Br)c3)c2cc1OC
MSL Corr test: 0.2152

Could you share which MSL Corr test value was measured for CC(=O)N[C@H](Cc1ccc2ccccc2c1)C(=O)N[C@H](Cc1ccc(Cl)cc1)C(=O)N[C@H](Cc1cccnc1)C(=O)N[C@@H](CO)C(=O)N[C@@H](Cc1ccc(O)cc1)C(=O)N[C@H](CCCNC(N)=O)C(=O)N[C@@H](CC(C)C)C(=O)N[C@@H](CCCNC(=N)N)C(=O)N1CCC[C@H]1C(=O)N[C@H](C)C(N)=O [cetrorelix] (Ac-[d2Nal][dPhe(4-Cl)][d3Pal]SY[dCit]LRP[dA]-NH2) ?
−0.07051

Could you share which MSL Corr test value was measured for `Nc1cccc(-c2cc3c(Oc4cccc(O)c4)ncnc3[nH]2)c1` ?
0.1335

Could you share which MSL Corr test value was measured for `CC(C)C[C@H](NC(=O)CNC(=O)[C@H](Cc1ccc(O)cc1)NC(=O)[C@H](CO)NC(=O)[C@H](Cc1c[nH]c2ccccc12)NC(=O)[C@H](Cc1cnc[nH]1)NC(=O)[C@@H]1CCC(=O)N1)C(=O)N[C@@H](CCCNC(=N)N)C(=O)N1CCC[C@H]1C(=O)NCC(N)=O` ?
−0.1224

---

Tested on: cancer cell lines, DetermaIO classes
Test: Association of PRISM compound sensitivity with DetermaIO (DTIO) cell line classes
Format: cell-based
Conditions: correlation of PRISM compound sensitivity with DTIO; training cell set
Checkbox rule: DTIO Corr train lower than -0.1 = label 1; DTIO Corr train not lower than -0.1 = label 0.

compound: c1cc2c(cc1C1CCCCC1)c1c3n2CCNC3CCC1 (stereo not drawn)
assigned-category: label 0
--
compound: CC1(C)[C@@H](O[C@H]2O[C@H](C(=O)O)[C@@H](O)[C@H](O)[C@H]2O[C@@H]2O[C@H](C(=O)O)[C@@H](O)[C@H](O)[C@H]2O)CC[C@]2(C)[C@H]3C(=O)C=C4[C@@H]5C[C@@](C)(C(=O)O)CC[C@]5(C)CC[C@@]4(C)[C@]3(C)CC[C@@H]12 [ammonium-glycyrrhizinate]
assigned-category: label 0
--
compound: O=S(=O)(O)c1ccc(O)cc1
assigned-category: label 1
--
compound: CN(C)CCN1C(=O)c2cccc3cc(NC(N)=O)cc(c23)C1=O
assigned-category: label 0

DTIO Corr train strictly < -0.1 for this compound? `CN1C(=O)N(c2cc(Cl)cc(Cl)c2)C(=O)[C@]12CN(Cc1cc(C(=O)O)cs1)C[C@H]2c1ccc(C#N)cc1`
label 0

DTIO Corr train strictly < -0.1 for this compound? `C/C(=N\NC(=N)N)c1cc(NC(=O)CCCCCCCCC(=O)Nc2cc(/C(C)=N/NC(=N)N)cc(/C(C)=N/NC(=N)N)c2)cc(/C(C)=N/NC(=N)N)c1`
label 0

---

Tested on: cancer cell lines, DetermaIO classes
Test: Association of PRISM compound sensitivity with DetermaIO (DTIO) cell line classes
Type: cell-based
Conditions: correlation of PRISM compound sensitivity with DTIO; training cell set
observable: DTIO Corr train
Number only, please.

Past entries and their recorded results:
compound: CN(N=O)C(=O)N[C@H]1C(O)O[C@H](CO)[C@@H](O)[C@@H]1O (mixture of isomers) [streptozotocin]
assay-target: cancer cell lines, DetermaIO classes
DTIO Corr train: 0.03601

compound: Cc1c(NC(=O)OC[C@@H]2COCCN2)cn2ncnc(Nc3ccc4c(cnn4Cc4cccc(F)c4)c3)c12 [BMS-599626]
assay-target: cancer cell lines, DetermaIO classes
DTIO Corr train: −0.07697

Could you share which DTIO Corr train value was measured for Cc1nn(C)c2c1C(c1cccc(Cl)c1)=NCCN2 [zometapine] ?
0.09146

Could you share which DTIO Corr train value was measured for C[C@@H]1COC(Nc2ccc3ncnc(Nc4ccc(OCc5nccs5)c(Cl)c4)c3c2)=N1 [ARRY-334543] ?
−0.05992

Could you share which DTIO Corr train value was measured for O=C(O)CCC/C=C\C[C@@H]1CO[C@H](C(F)(F)F)O[C@@H]1c1ccccc1O [ICI-185,282] ?
−0.09302

---

Test system: cancer cell lines, DetermaIO classes
Assay: Association of PRISM compound sensitivity with DetermaIO (DTIO) cell line classes
Assay type: cell-based
Conditions: correlation of PRISM compound sensitivity with DTIO; training cell set
Square brackets hold non-standard residues; d marks the D form. Peptide text beside a SMILES is read from it.
observable: DTIO Corr train
Number only, please.

Past entries and their recorded results:
molecule: CCS(=O)(=O)N(C)[C@H]1c2cc(C#N)ccc2OC(C)(C)[C@@H]1O [chromanol-293B-(−)-[3R,4S]]
assay-target: cancer cell lines, DetermaIO classes
assay-result: −0.08029
--
molecule: Cc1ccc(S(=O)(=O)/C=C/C#N)cc1
assay-target: cancer cell lines, DetermaIO classes
assay-result: −0.00647
--
molecule: C[C@@H](Oc1ccc2[nH]nc(/C=C/c3cnn(CCO)c3)c2c1)c1c(Cl)cncc1Cl
assay-target: cancer cell lines, DetermaIO classes
assay-result: −0.1449
--
molecule: C[C@H](Nc1ncnc2[nH]cnc12)c1cc2ccc(F)cc2nc1-c1ccccn1 [AMG-319]
assay-target: cancer cell lines, DetermaIO classes
assay-result: −0.0218
--
molecule: O=C(O)/C=C1\CCCc2ccccc2C1O (stereo not drawn)
assay-target: cancer cell lines, DetermaIO classes
assay-result: −0.1343

Could you share which DTIO Corr train value was measured for `COc1cc2c(NC3CCN(CC4CCCCC4)CC3)nc(N3CCCN(C(C)C)CC3)nc2cc1OCCCN1CCCCC1` ?
0.1055

Could you share which DTIO Corr train value was measured for `CCCN(CCC)CCc1ccc(OC)c(OCCc2ccccc2)c1` ?
0.0932

Could you share which DTIO Corr train value was measured for `COc1cc(C(=O)c2c(C)oc3c(O)c(OC)ccc23)cc(OC)c1OC` ?
−0.1119

Could you share which DTIO Corr train value was measured for Cc1nc(C)c(-c2ccc(C3CCC(CC(=O)O)CC3)cc2)nc1C(N)=O (stereo not drawn) ?
−0.02143

Could you share which DTIO Corr train value was measured for `CN[C@H]1CN(c2ccc3c(=O)c(C(=O)O)cn(-c4nccs4)c3n2)C[C@@H]1OC` ?
−0.04486

Could you share which DTIO Corr train value was measured for CC(C)C[C@@H]1NC(=O)[C@@H](C(C)C)NC(=O)[C@@H]2CCCN2C(=O)[C@@H](CC(=O)O)NC(=O)[C@@H](Cc2c[nH]c3ccccc23)NC1=O [BQ-123] (cyclo(L[dW][dD]P[dV])) ?
0.04394

Could you share which DTIO Corr train value was measured for CNC(=O)CN(CCN(CCN(CC(=O)[O-])CC(=O)NC)CC(=O)[O-])CC(=O)[O-].[Gd+3] [gadodiamide] ?
−0.1128

Could you share which DTIO Corr train value was measured for CN(CCOP(=O)(O)O)C(=N)N [creatinol-phosphate] ?
−0.08518

Could you share which DTIO Corr train value was measured for `Cc1cc(-c2cc(O)ccc2Cl)cc2nnc(Nc3ccc(OCCN4CCCC4)cc3)nc12` ?
0.09048

Could you share which DTIO Corr train value was measured for CCC(O)(c1ccccc1)c1cccc(C(F)(F)F)c1 (stereo not drawn) ?
0.02706

Could you share which DTIO Corr train value was measured for `COc1cc2ncnc(Sc3nnc(C)s3)c2cc1OC` ?
0.02384

Could you share which DTIO Corr train value was measured for `Cc1oc2nc3c(c(NC(=O)CN4CCCC4=O)c2c1C)CCCC3` ?
−0.02488

Could you share which DTIO Corr train value was measured for `COc1ccccc1N1CCN(CCCCN2C(=O)CCC2=O)CC1` ?
−0.1241
